target: Group 3 secretory phospholipase A2 (Homo sapiens); test: human group III sPLA2 inhibitors, primary screen, biochemical, QFRET, BODIPY PC-A2 liposome substrate (AID 743126); conditions: QFRET BODIPY PC-A2 liposome hydrolysis, fluorescence; at 12.2 µM; stronger effect = higher value;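 also: 0% = median of test compound wells and 100% = no enzyme DMSO wells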
Out of some 370,000 compounds screened, about 2,100 (0.57%) were called active. Shown is part of a subset that was picked to be rich in actives.
measurement_label: inhibition (%)
Kindly answer with a numeric value in %, unit omitted.

[
  {
    "structure_as_smiles": "O=[N+]([O-])c1ccccc1S(=O)(=O)Nc1cccc2cccnc12",
    "study_target": "Group 3 secretory phospholipase A2 (Homo sapiens)",
    "measurement_label": "inhibition",
    "endpoint_value": 6.98
  }
]

Endpoint output: inhibition of `COC(=O)c1ccc(NC(=S)Nc2cccc(C)n2)cc1` . Value? 7.29

Endpoint output: inhibition of `CCCCNC(=O)c1ccc(-n2c(=S)[nH]c3ccccc3c2=O)cc1` . Value? 4.64

Endpoint output: inhibition of `c1coc(CCNc2ncnc3ccc(-c4ccc5c(c4)OCO5)cc23)c1` . Value? -19.4

Endpoint output: inhibition of `C=CCn1c(SCC(=O)NC)nnc1C12CC3CC(CC(C3)C1)C2` . Value? 0.19

Endpoint output: inhibition of `O=C(C1CCN(S(=O)(=O)c2ccccc2)CC1)N1CCN(C2CCCCC2)CC1` . Value? 8.19

Endpoint output: inhibition of `COc1cc(C(=O)NCC(=O)NCCSc2ccc(Br)cc2)cc(OC)c1OC` . Value? -0.46

Endpoint output: inhibition of `C=CCn1c(C23CC4CC(CC(C4)C2)C3)n[nH]c1=S` . Value? 23.5

Endpoint output: inhibition of `C=CCn1c(-c2ccc3[nH]c(C)c(C)c3c2)n[nH]c1=S` . Value? -0.35

Endpoint output: inhibition of `C=CCn1c(SCc2ccccc2)nc2c1c(=O)[nH]c(=O)n2C` . Value? -4.25

Endpoint output: inhibition of `COc1ccc(CCNC(=O)CCC(=O)NC2CCCCC2)cc1OC` . Value? 3.45
